Measured relative viability of individual entries
- Tested on: NCI-H1755
- protocol description: relative viability (nuclei count vs DMSO), 5 days (fraction); higher = more cells survive
- measurement context: first compound 0.08 µM
Write no unit; give the number alone.

>  <compound>
C=C1C(=O)O[C@@H](CCCCCCCC)[C@@H]1C(=O)O [C-75] + CC1(C)CCC(c2ccc(Cl)cc2)=C(CN2CCN(c3ccc(C(=O)NS(=O)(=O)c4ccc(N[C@H](CCN5CCOCC5)CSc5ccccc5)c(S(=O)(=O)C(F)(F)F)c4)cc3)CC2)C1 [Navitoclax] (partner 0.5 µM)

>  <value observed>
0.945

$$$$
>  <compound>
C=C1C(=O)O[C@@H](CCCCCCCC)[C@@H]1C(=O)O [C-75] + CC(=O)Nc1cccc(-n2c(=O)n(C3CC3)c(=O)c3c(Nc4ccc(I)cc4F)n(C)c(=O)c(C)c32)c1 [Trametinib] (partner 0.02 µM)

>  <value observed>
0.763

$$$$
>  <compound>
Oc1nc(-c2ccc(C(F)(F)F)cc2)nc2c1CSCC2 [XAV939] + CS(=O)(=O)N1CCN(Cc2cc3nc(-c4cccc5[nH]ncc45)nc(N4CCOCC4)c3s2)CC1 [Pictilisib] (partner 1 µM)

>  <value observed>
0.456

$$$$

Let's switch to this compound now.
Briefly, relative viability measured for Oc1nc(-c2ccc(C(F)(F)F)cc2)nc2c1CSCC2 [XAV939] + NC(=O)Nc1cc(-c2cccc(F)c2)sc1C(=O)N[C@H]1CCCNC1 [AZD7762] (partner 0.2 µM) : 0.394
